reported-endpoint: melting point

Take a look at these entries with their results.
>>> experimental_result("CN(C)c1ccc(-c2nc(N3N=C(c4c5ccccc5cc5ccccc45)CC3c3ccc(F)cc3)[nH]c(=O)c2C#N)cc1 (stereo not shown) [Compound 4q]")
"182 to 184 °C"
>>> experimental_result("CN(C)c1ccc(C2CC(c3c4ccccc4cc4ccccc34)=NN2c2nc(-c3ccccc3)c(C#N)c(=O)[nH]2)cc1 (stereo not shown) [Compound 4b]")
"120 to 122 °C"
>>> experimental_result("COc1cc(C2CC(c3c4ccccc4cc4ccccc34)=NN2c2nc(-c3ccccc3)c(C#N)c(=O)[nH]2)cc(OC)c1OC (stereo not shown) [Compound 4c]")
"110 to 112 °C"
>>> experimental_result("N#Cc1c(-c2ccccc2)nc(N2N=C(c3c4ccccc4cc4ccccc34)CC2c2ccc(F)cc2)[nH]c1=O (stereo not shown) [Compound 4a]")
"150 to 151 °C"
>>> experimental_result("O=C(/C=C/c1c[nH]c2ccccc12)c1c2ccccc2cc2ccccc12 [Compound 3d]")
"170 to 172 °C"
>>> experimental_result("COc1cc(-c2nc(N3N=C(c4c5ccccc5cc5ccccc45)CC3c3ccc(N(C)C)cc3)[nH]c(=O)c2C#N)cc(OC)c1OC (stereo not shown) [Compound 4n]")
"170 to 172 °C"

Consider now this further compound.
Data request: Entry under review: CN(C)c1ccc(-c2nc(N3N=C(c4c5ccccc5cc5ccccc45)CC3c3c[nH]c4ccccc34)[nH]c(=O)c2C#N)cc1 (stereo not shown) [Compound 4t] . Reported melting point?
Data returned: 190 to 191 °C

Values from paper PMC6537702
